Entry source: PubChem BioAssay (NCI)

tested on: A498 renal; experiment: NCI tumour cell line growth inhibition, 48 h
Assign TGI to each entry below.

Given the compound N#CC12C(=O)N3C(=NC(c4ccccc4)NC3c3ccccc3)C1(C#N)C(c1ccccc1)NC1=C2CCC1 (centres undefined) , write its reported TGI.
> 100 µM

Given the compound CC1(C)CC(=O)c2c(C(F)(F)F)nn(-c3ccc(C(N)=O)c(NC4CCC(OC(=O)CN)CC4)c3)c2C1 (centres undefined) , write its reported TGI.
> 100 µM

Given the compound "CCc1nccc2c1nc(-c1nonc1N)n2CC" , write its reported TGI.
> 25 µM

Given the compound "COc1ccc(/C=C2\NC(=S)N(CN3CCCCC3)C2=O)cc1" , write its reported TGI.
> 100 µM

Given the compound "O=C(/C=C/c1ccccc1)c1cc(Br)ccc1O" , write its reported TGI.
26.8 µM

Given the compound "C[C@]12CC[C@@H]3c4ccc(OP(=O)(O)O)cc4CC[C@H]3[C@@H]1CCC2=O" , write its reported TGI.
> 100 µM

Given the compound "COc1ccc(OC)c(NC(=O)C2=C(C)NC(C)=C(C(=O)Nc3cc(OC)ccc3OC)C2c2ccccc2)c1" , write its reported TGI.
> 100 µM

Given the compound "COc1ccc2nc(-n3c(/C=C/c4ccccc4O)nc4ccccc4c3=O)sc2c1" , write its reported TGI.
> 100 µM

Given the compound "O=c1/c(=C/c2ccccc2F)sc2nc3ccccc3n12" , write its reported TGI.
> 100 µM

====

test system: MDA-N; experiment: NCI tumour cell line growth inhibition, 48 h
Observable: TGI (µM)
Reply numerically in µM, unit not repeated.

Given the compound "NC(=O)c1cc2cc(Cl)cc(Cl)c2oc1=Nc1ccc(F)cc1" , write its reported TGI.
66.5

Given the compound "CCOC(=O)c1ccc(N=C2C(=S)N(c3ccc(C(=O)OCC)cc3)C(=N)N2/N=C/c2ccccc2)cc1" , write its reported TGI.
33

Given the compound "CC(=O)OCOC(=O)CN(CC(=O)OCOC(C)=O)Cc1cc2c(cc1OC(C)=O)Oc1cc(OC(C)=O)c(CN(CC(=O)OCOC(C)=O)CC(=O)OCOC(C)=O)cc1C21OC(=O)c2ccccc21" , write its reported TGI.
1.32

Given the compound CC(=O)CCCCC(=O)Nc1ccc(CC(NC(=O)OC(C)(C)C)C(=O)NCC(=O)OCc2ccccc2)cc1 (centres undefined) , write its reported TGI.
38.6

Given the compound "CCOC(=O)C1(C(=O)OCC)Nc2cccnc2N(C)N1" , write its reported TGI.
35.4

====

system: SK-MEL-28 melanoma; assay: NCI tumour cell line growth inhibition, 48 h
Observable: GI50

Given the compound "COc1ccc2sc3c(NCCCN(C)C)nc4ccccc4c3c(=O)c2c1" , write its reported GI50.
1780 nM

Given the compound "COc1ccc(-c2ccc(/C=N/n3c(COc4ccc(Cl)cc4Cl)nn(CN4CCOCC4)c3=S)o2)c([N+](=O)[O-])c1" , write its reported GI50.
27700 nM

Given the compound "COc1ccc(-c2csc(N(C(=O)N3CCN(c4cc5c(cc4F)c(=O)c(C(=O)O)cn5C4CC4)CC3)c3ccccc3)n2)cc1" , write its reported GI50.
5170 nM

Given the compound "CCCCCCCCN=C(N)c1ccc(N2CCN(c3ccc(C(N)=NCCCCCCCC)cc3)CC2)cc1" , write its reported GI50.
2740 nM

Given the compound "O=C1/C(=C\c2c[nH]c3ccccc23)c2ccccc2N1c1c(Cl)cccc1Cl" , write its reported GI50.
2140 nM
